These data points were gathered from PubChem BioAssay AID2305.

compounds and their reported IC50
- System: P. falciparum 3D7 growth, pLDH absorbance
- experiment_description: blood-stage malaria parasite growth potency – strain 3D7, dose response (AID 2305)
Record the value in nM, omitting the unit from your answer.

[[record]]
compound = "CCCNCc1ccc(-c2ccc(CN(CCOC)C(=O)c3cscn3)cc2)nc1"
measured_endpoint = "IC50"
endpoint_result = 180


# input for lookup
What does the record list as IC50 for CCN(CCN(C)C)Cc1ccc(-c2ccc(NS(=O)(=O)c3cccc(Cl)c3)cc2)cc1 ?
520

====

compounds and their reported IC50
- Tested on: P. falciparum 3D7 growth, pLDH absorbance
- experiment_description: blood-stage malaria parasite growth potency – strain 3D7, dose response (AID 2305)
Record the value in nM, omitting the unit from your answer.

Below, each entry is followed by its recorded IC50 result.
[[record]]
compound = "COc1ccc(NC(=O)NC2CCN(CCCOc3ccnc4cc(Cl)ccc34)C2)cc1OC (stereo not drawn)"
measured_endpoint = "IC50"
reading_unit = "nM"
endpoint_result = 790

[[record]]
compound = "Nc1nccc2ccc(-c3cccc4ncccc34)cc12"
measured_endpoint = "IC50"
reading_unit = "nM"
endpoint_result = 50

[[record]]
compound = "CCN(CC)C(=NCCCCCCN=C(/N=C(/N)Nc1ccc(C)cc1)N(CC)CC)/N=C(/N)Nc1ccc(C)cc1"
measured_endpoint = "IC50"
reading_unit = "nM"
endpoint_result = 540

[[record]]
compound = "O=C(Nc1cccc(C(F)(F)F)c1)NC1CCN(c2ccnc3ccccc23)CC1"
measured_endpoint = "IC50"
reading_unit = "nM"
endpoint_result = 990

[[record]]
compound = "CN(C)C(=O)n1cnc(S(=O)(=O)N(C)c2ccc(Cl)cc2)n1"
measured_endpoint = "IC50"
reading_unit = "nM"
endpoint_result = 770

[[record]]
compound = "Cc1cc(N)c2cc(NC(=O)/C=C/c3ccccc3Cl)ccc2n1"
measured_endpoint = "IC50"
reading_unit = "nM"
endpoint_result = 400


What does the record list as IC50 for COc1ccc2nccc([C@@H](O)CN3CCC(NCc4ccc5c(c4)NC(=O)C(C)S5)CC3)c2c1 (stereo partly drawn) ?
200

What does the record list as IC50 for COc1ccc(-c2nccc(NC(N)=NCc3ccccc3)n2)cc1 ?
670

What does the record list as IC50 for C[C@@H](COc1ccccc1)NCC(O)c1ccc([N+](=O)[O-])c(OCc2ccccc2)c1 (stereo partly drawn) ?
990

What does the record list as IC50 for c1ccc(CCNCc2cccc(-c3ccc(CNc4ccc5ncccc5c4)cc3)c2)cc1 ?
810

What does the record list as IC50 for O=C(N[C@H](Cc1ccc(Cl)cc1)C(=O)N1CCN(c2ccnc3cc(Cl)ccc23)CC1)[C@H]1Cc2ccccc2CN1 ?
420

What does the record list as IC50 for Cc1cc(N2CCCC2)nc(Nc2ccc(NC(=O)c3ccc(Br)o3)cc2)n1 ?
620

What does the record list as IC50 for Cc1ccc(CC(C)NC[C@H](O)c2cccc(Cl)c2)cc1 (stereo partly drawn) ?
860

====

compounds and their reported IC50
- System: P. falciparum 3D7 growth, pLDH absorbance
- experiment_description: blood-stage malaria parasite growth potency – strain 3D7, dose response (AID 2305)
Record the value in nM, omitting the unit from your answer.

[[record]]
compound = "c1ccc(CN2CCN(c3cc(-c4cncc(-c5ccccc5)c4)nc(-c4ccccc4)n3)CC2)cc1"
measured_endpoint = "IC50"
reading_unit = "nM"
endpoint_result = 1040

[[record]]
compound = "C[C@H](O)[C@@](C)(CO)NCc1ccc2c3c(cccc13)-c1ccccc1-2"
measured_endpoint = "IC50"
reading_unit = "nM"
endpoint_result = 820


# input for lookup
What does the record list as IC50 for CC(CNC1CCN(CCn2c(=O)ccc3ccc(F)cc32)CC1)c1ccccc1 (stereo not drawn) ?
1270

====

- System: P. falciparum 3D7 growth, pLDH absorbance
- experiment_description: blood-stage malaria parasite growth potency – strain 3D7, dose response (AID 2305)
measured_endpoint: pIC50
// returns pIC50 (minus log10 of molar concentration), number only

Below, each entry is followed by its recorded pIC50 result.
[[record]]
compound = "CCCC(C)Nc1nc(C)cc(N[C@@H](Cc2ccccc2)C(=O)NCc2ccc(C)cc2)n1 (some centres not stated)"
measured_endpoint = "pIC50"
endpoint_result = 5.95

[[record]]
compound = "COc1ccc(CNCc2ccccc2)cc1-c1ccc(S(=O)(=O)NCCN2CCCC2)c(F)c1"
measured_endpoint = "pIC50"
endpoint_result = 5.94

[[record]]
compound = "CC(=NNc1nc2ccccc2s1)c1ccccn1"
measured_endpoint = "pIC50"
endpoint_result = 5.95

[[record]]
compound = "O=C(Nc1ccc(Cl)cc1)OCCn1nnnc1C(c1ccc(Cl)cc1)N1CCOCC1 (configuration not stated)"
measured_endpoint = "pIC50"
endpoint_result = 5.93


What does the record list as pIC50 for COc1ccc2nccc([C@@H](O)CN3CCC(NCCc4c[nH]c5ccccc45)CC3)c2c1 ?
6.68

What does the record list as pIC50 for CC(=O)Nc1ccc(OCCN(Cc2ccccc2C(F)(F)F)c2ccc(C#N)c(C(F)(F)F)c2)c(Cl)c1 ?
6.21

What does the record list as pIC50 for O=S(=O)(c1ccc(OCc2ccc(Cl)cc2)cc1)c1cc2c(cc1OCc1ccccc1)CCN(CC1CC1)CC2 ?
5.95

====

- System: P. falciparum 3D7 growth, pLDH absorbance
- experiment_description: blood-stage malaria parasite growth potency – strain 3D7, dose response (AID 2305)
measured_endpoint: pIC50
// returns pIC50 (minus log10 of molar concentration), number only

Below, each entry is followed by its recorded pIC50 result.
[[record]]
compound = "CCCCCCOc1ccccc1C(=O)NCCOc1ccc(Cl)cc1"
endpoint_result = 5.92

[[record]]
compound = "COc1cccc(Nc2nc(C)cc(NC3CCCC3)n2)c1"
endpoint_result = 5.95

[[record]]
compound = "O=C(Nc1ccc(N2CCCN(Cc3cccc(F)c3)CC2)cc1)c1cccs1"
endpoint_result = 6.26

[[record]]
compound = "COc1ccc(CNCc2ccc(-c3ccc(-c4nc5ccccc5[nH]4)cc3)cc2)cc1"
endpoint_result = 6.62

[[record]]
compound = "CN1CCC(C(=O)Nc2cccc(-c3cccc(-c4nc5ccc(F)cc5[nH]4)c3)c2)CC1"
endpoint_result = 6.16

[[record]]
compound = "O=C1CSc2ccc(CNC3CCN(CCc4c(Cl)cnc5ccc(F)cc45)CC3)nc2N1"
endpoint_result = 6.37

[[record]]
compound = "COc1ccc2nccc([C@@H](O)CN3CCC(NC(=O)c4ccc(CN5CCN(c6cccc(C)c6)CC5C)cc4)CC3)c2c1 (some centres not stated)"
endpoint_result = 6.68

[[record]]
compound = "CN(C)c1ccc2c(c1)Sc1cc(N(C)C)ccc1N2C(=O)c1cccc(C(=O)O)c1"
endpoint_result = 6.74

[[record]]
compound = "CC1CCCC(NCc2c(O)ccc3ccccc23)C1 (configuration not stated)"
endpoint_result = 6.03

[[record]]
compound = "COc1ccc(CN2CCC(CNC(C)c3cccc4ccccc34)CC2)cc1 (configuration not stated)"
endpoint_result = 6.74


What does the record list as pIC50 for Nc1ccc2[nH]cc(C3CCN(CCC4CCN(C(=O)/C=C/c5ccc(Cl)c(Cl)c5)CC4)CC3)c2n1 ?
6.13

What does the record list as pIC50 for Cc1ccc(C)c(NC(=O)Nc2ccc(C)c(-c3ccc(C(=O)Nc4ccncc4)cc3)c2)c1 ?
6.21

====

- Tested on: P. falciparum 3D7 growth, pLDH absorbance
- experiment_description: blood-stage malaria parasite growth potency – strain 3D7, dose response (AID 2305)
measured_endpoint: IC50
Express your answer as a number followed by its unit.

GET /values?readout=IC50&system=P. falciparum 3D7 growth, pLDH absorbance&item= CN1c2ccc([N+](=O)[O-])cc2C(C)(C)C12C=Cc1cc(Br)cc([N+](=O)[O-])c1O2 (stereo not drawn)
780 nM

GET /values?readout=IC50&system=P. falciparum 3D7 growth, pLDH absorbance&item= CN1CCN(CCCNCc2ccccc2-c2cccc(CNCc3ccc4c(c3)OCO4)c2)CC1
790 nM

GET /values?readout=IC50&system=P. falciparum 3D7 growth, pLDH absorbance&item= CCc1c(CCNCCCCCCNCCc2ccc([N+](=O)[O-])cc2)ccc(O)c1O
780 nM

====

- Test system: P. falciparum 3D7 growth, pLDH absorbance
- experiment_description: blood-stage malaria parasite growth potency – strain 3D7, dose response (AID 2305)
measured_endpoint: IC50 (nM)
Record the value in nM, omitting the unit from your answer.

Below, each entry is followed by its recorded IC50 result.
[[record]]
compound = "COc1ccc2nccc([C@@H](O)CN3CCC(NC(=O)C(=Cc4ccc(C#N)cc4)c4ccc(-c5ccccc5)cc4)CC3)c2c1"
endpoint_result = 740

[[record]]
compound = "Cc1cc(CNCC2CCC(CNCCCc3ccccc3)CC2)ccc1O (configuration not stated)"
endpoint_result = 870

[[record]]
compound = "O=C(Nc1cccc(-c2csc(NC(=O)c3ccc4ccccc4c3)n2)c1)c1ccc2ccccc2c1"
endpoint_result = 710


What does the record list as IC50 for O=C(Nc1cccc(CN2CCCN(Cc3ccsc3)CC2)c1)c1ccc(Cl)c(Cl)c1 ?
880

What does the record list as IC50 for CCCCCCN(CCCCCC)CC(O)c1c(OC)ccc2ccccc12 (configuration not stated) ?
570

What does the record list as IC50 for O=C(Nc1ccc(C(F)(F)F)cc1)NC1CCN(c2ccnc3ccccc23)CC1 ?
180

What does the record list as IC50 for O=C(NCc1ccccc1)c1nn(CCCN2CCC3(CC2)C(=O)NCN3c2ccccc2)cc1-c1ccc(Cl)c(Cl)c1 ?
1050
